// data source = patent US20180044434A1

biological target: T1, Ala mutant of TA0096, SEQ ID NO: 31; experiment: ELISA, coated peptide
T1 peptide: EENMADQWMQDEMEIGY
Catalogue of OD 490/630 nm readings, one per entry.
Could you respond with only the numeric value?

Examples with their reported OD 490/630 nm follow.
{"binder": "E9 (antibody, V domains shown, Chicken variable regions in a mouse chimeric antibody (IgG1); also called anti-PAD4 antibody E9) VH: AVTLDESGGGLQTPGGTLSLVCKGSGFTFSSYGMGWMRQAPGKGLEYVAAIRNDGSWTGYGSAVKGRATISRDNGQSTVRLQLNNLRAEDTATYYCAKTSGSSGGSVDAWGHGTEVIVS VL: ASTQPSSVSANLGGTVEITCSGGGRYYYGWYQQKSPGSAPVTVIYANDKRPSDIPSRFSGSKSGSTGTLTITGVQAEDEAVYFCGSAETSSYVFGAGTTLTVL", "OD 490/630 nm": 1.38}
{"binder": "G6 (antibody, V domains shown, Chicken variable regions in a mouse chimeric antibody (IgG1); also called anti-PAD4 antibody G6) VH: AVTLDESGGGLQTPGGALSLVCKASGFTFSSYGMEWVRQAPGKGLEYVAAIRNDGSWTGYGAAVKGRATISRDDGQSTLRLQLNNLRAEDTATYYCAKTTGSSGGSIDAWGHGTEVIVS VL: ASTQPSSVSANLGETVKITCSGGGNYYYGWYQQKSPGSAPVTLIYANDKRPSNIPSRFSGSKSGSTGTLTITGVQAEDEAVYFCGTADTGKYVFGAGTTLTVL", "OD 490/630 nm": 1.77}

Now for a further binder.
Task: GET /values?readout=OD 490/630 nm&item= A11 (antibody, V domains shown, Chicken variable regions in a mouse chimeric antibody (IgG1); also called anti-PAD4 antibody A11) VH: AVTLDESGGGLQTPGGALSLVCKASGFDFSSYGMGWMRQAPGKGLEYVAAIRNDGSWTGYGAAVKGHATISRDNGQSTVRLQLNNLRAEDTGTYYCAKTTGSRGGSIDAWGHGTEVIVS VL: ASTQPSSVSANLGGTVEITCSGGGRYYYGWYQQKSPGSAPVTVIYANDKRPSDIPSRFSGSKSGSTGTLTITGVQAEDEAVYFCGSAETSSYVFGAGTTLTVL
Result: 1.67
